This listing pairs compounds with measured inhibition.
Target: UniProt P81908
Sequence (P81908 whole entry): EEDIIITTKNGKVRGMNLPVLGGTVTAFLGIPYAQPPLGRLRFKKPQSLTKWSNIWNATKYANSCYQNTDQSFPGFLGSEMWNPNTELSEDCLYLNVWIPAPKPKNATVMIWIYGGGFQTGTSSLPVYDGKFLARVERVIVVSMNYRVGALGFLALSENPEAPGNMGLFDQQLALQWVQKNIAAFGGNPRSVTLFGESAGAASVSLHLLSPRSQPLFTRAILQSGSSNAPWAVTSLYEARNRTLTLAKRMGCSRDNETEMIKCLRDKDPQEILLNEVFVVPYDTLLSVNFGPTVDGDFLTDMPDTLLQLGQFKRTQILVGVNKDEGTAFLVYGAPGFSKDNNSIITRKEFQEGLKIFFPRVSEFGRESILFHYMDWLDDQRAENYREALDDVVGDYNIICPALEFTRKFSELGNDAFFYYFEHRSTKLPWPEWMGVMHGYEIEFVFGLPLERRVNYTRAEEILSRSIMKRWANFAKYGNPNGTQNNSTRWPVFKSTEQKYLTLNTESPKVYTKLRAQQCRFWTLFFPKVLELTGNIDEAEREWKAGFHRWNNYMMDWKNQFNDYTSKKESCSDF
Test: Inhibition of equine serum BuChE at 10 uM using butyrylthiocholine iodide as substrate preincubated for 5 mins followed by substrate addition measured after 5 mins by Ellman's method relative to control

Quote inhibition reported for O=C1c2ccccc2C(=O)N1CCNC1CCCN(Cc2ccccc2F)C1 (stereo not given) please.
28.3%

Quote inhibition reported for O=C1c2ccccc2S(=O)(=O)N1CCN1CCN(Cc2ccc(F)cc2)CC1 please.
47.5%

Quote inhibition reported for O=C1c2ccccc2S(=O)(=O)N1CCN1CCCC(NCc2ccccc2F)C1 (stereo not given) please.
< 10%

Quote inhibition reported for O=C1c2ccccc2S(=O)(=O)N1CCCN1CCN(Cc2ccccc2)CC1 please.
11.7%

Quote inhibition reported for O=C1c2ccccc2C(=O)N1CCN1CCN(Cc2cc(F)cc(F)c2)CC1 please.
14.2%

Quote inhibition reported for O=C1c2ccccc2S(=O)(=O)N1CCCCCCN1CCN(Cc2ccccc2)CC1 please.
41.8%

Quote inhibition reported for O=C1c2ccccc2S(=O)(=O)N1CCCN1CCN(Cc2ccccc2F)CC1 please.
12%

Quote inhibition reported for O=C1c2ccccc2S(=O)(=O)N1CCCCCCN1CCN(Cc2ccccc2F)CC1 please.
31.6%

Quote inhibition reported for O=C1c2ccccc2C(=O)N1CCNC1CCCN(Cc2ccccc2)C1 (stereo not given) please.
16%

Quote inhibition reported for O=C1c2ccccc2S(=O)(=O)N1CCN1CCCC(NCc2cc(F)cc(F)c2)C1 (stereo not given) please.
< 10%

---

Biological target: Acetylcholinesterase (Homo sapiens, UniProt P22303)
Sequence (P22303 whole entry): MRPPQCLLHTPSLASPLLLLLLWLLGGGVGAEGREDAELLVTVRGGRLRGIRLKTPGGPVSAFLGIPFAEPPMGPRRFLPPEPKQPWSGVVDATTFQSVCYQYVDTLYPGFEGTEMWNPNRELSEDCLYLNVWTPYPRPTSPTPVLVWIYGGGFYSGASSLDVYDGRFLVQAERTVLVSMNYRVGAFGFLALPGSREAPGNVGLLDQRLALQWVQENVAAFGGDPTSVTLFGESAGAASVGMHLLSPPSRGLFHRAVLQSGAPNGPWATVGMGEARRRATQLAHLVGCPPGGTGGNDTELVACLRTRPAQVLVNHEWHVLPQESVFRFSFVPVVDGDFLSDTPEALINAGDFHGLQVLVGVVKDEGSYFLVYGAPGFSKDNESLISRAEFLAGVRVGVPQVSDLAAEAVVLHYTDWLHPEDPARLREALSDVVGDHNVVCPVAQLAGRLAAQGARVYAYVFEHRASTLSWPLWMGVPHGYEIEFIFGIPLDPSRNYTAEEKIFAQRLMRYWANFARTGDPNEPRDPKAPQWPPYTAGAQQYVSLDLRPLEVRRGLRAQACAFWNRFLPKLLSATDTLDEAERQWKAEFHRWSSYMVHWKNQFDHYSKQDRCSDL
Assay: Inhibition of recombinant human AChE using acetylthiocholine iodide as substrate preincubated for 5 mins followed by substrate addition measured after 5 mins by Ellman's method
Reported property: IC50 (µM)
Field: numeric (µM). Do not append units.

Quote IC50 reported for O=C1c2ccccc2S(=O)(=O)N1CCCCCNCc1ccccc1 please.
0.033
